Data origin: PubChem BioAssay (NCATS)

Tested on: Zika virus NS2B-NS3 protease (unlinked)
Experiment: Optimization of GU AMC qHTS for Zika virus inhibitors: Unlinked NS2B-NS3 protease assay (AID 1347151); note: nearly all actives have a fitted effect of over 80% in size
Settings: recombinant ZIKV NS2B-NS3 protease, fluorogenic AMC substrate; series mostly up to 52.5 µM
Records with an inconclusive call do not appear. Active and inactive are the calls of the source. Calls come from the whole dose curve; as a rule, active = well fitted inhibition curve with a large enough effect; inconclusive = small, poorly fitted or top-dose-only effect; inactive = no such curve, though single readings can be large or run the other way.
Returns: one label drawn from active, inactive

Field: example entries. Status: answers known.
- CC(C)=CCOc1c2occc2cc2ccc(=O)oc12: inactive
- CCCN1CCC[C@@H]2Cc3[nH]ncc3C[C@H]21: inactive
- Cc1ccc(S(=O)(=O)N[C@@H](CCCCN)C(=O)CCl)cc1: inactive
- COc1ccc(C(CN(C)C)C2(O)CCCCC2)cc1 (stereo not given): inactive
- O=c1[nH]c2ccccc2n1C1CCN(CCCC(c2ccc(F)cc2)c2ccc(F)cc2)CC1: inactive

input: Short answer needed: outcome of this test for O=c1[nH]c2ccccc2n1CCCN1CCC(n2c(=O)[nH]c3cc(Cl)ccc32)CC1 ?
output: inactive

input: Short answer needed: outcome of this test for NN=C(N)N ?
output: inactive

input: Short answer needed: outcome of this test for CC(=O)[C@H]1CC[C@H]2[C@@H]3CC[C@H]4C[C@H](O)CC[C@]4(C)[C@H]3C(=O)C[C@]12C ?
output: inactive

input: Short answer needed: outcome of this test for CC(=O)[C@H]1CC[C@H]2[C@@H]3CC[C@H]4C[C@](C)(O)CC[C@]4(C)[C@H]3CC[C@]12C ?
output: inactive

input: Short answer needed: outcome of this test for CC[C@@H](CO)NC(=O)[C@@H]1C=C2c3cccc4[nH]cc(c34)C[C@H]2N(C)C1 ?
output: active

###

Test: qHTS for identification of novel therapeutic agents for treatment of microphthalmiaassociated transcription factor (MiT) renal cell carcinoma (RCC) (AID 1963991)
Details: TFE3-RCC viability, CellTiter-Glo, 48 h; measured here: UOK145 Z-AUC; stronger effect = lower value
Records with an inconclusive call do not appear.
// assign fulfilled if z-score falls strictly below 0.3, else not fulfilled (ties count as not fulfilled)

Field: example entries. Status: answers known.
• C[C@@H]1O[C@@H](O[C@H]2C[C@@H](O)[C@]3(CO)[C@H]4[C@H](O)C[C@]5(C)[C@@H](C6=CC(=O)OC6)CC[C@]5(O)[C@@H]4CC[C@]3(O)C2)[C@H](O)[C@H](O)[C@H]1O = fulfilled
• NCC1(CC(=O)O)CCCCC1 = fulfilled
• CNCC(O)c1ccc(O)cc1 (centres undefined) = fulfilled
• CCCC(C)(COC(N)=O)COC(=O)NC(C)C (centres undefined) = fulfilled
• CN(C)CCc1ccc(O)cc1 = not fulfilled

input: I wonder whether CC1=C2C[C@@H]3[C@@H](CC=C4C[C@@H](O)CC[C@@]43C)[C@@H]2CC[C@]12O[C@H]1C[C@H](C)CN[C@H]1[C@H]2C has z-score below 0.3. Can you tell?
output: fulfilled

input: I wonder whether O=C1CC[C@@]2(O)[C@H]3Cc4ccc(O)c5c4[C@@]2(CCN3CC2CC2)[C@H]1O5 has z-score below 0.3. Can you tell?
output: not fulfilled

input: I wonder whether COc1ccc2c(c1OC)CN1CCc3cc4c(cc3C1C2)OCO4 (centres undefined) has z-score below 0.3. Can you tell?
output: not fulfilled

input: I wonder whether Cn1c(CCCC(=O)O)nc2cc(N(CCCl)CCCl)ccc21 has z-score below 0.3. Can you tell?
output: not fulfilled
